Where these numbers come from: the RepoRT retention time repository (doi:10.1007/s00216-021-03828-0)

- Test Description: RP, Merck Supelco Ascentis Express C18, 100 × 2.1 mm, 2 µm, 40 °C, 0.4 mL/min, estimated dead time 0.55 min; A: water + 0.1% formic acid, pH 3; B: acetonitrile + 0.1% formic acid, pH 3; gradient (min/%B) 0/5 2/5 17/99.9 20/99.9
- Run Conditions: stereoisomer not certain
Structures can show the parent of a compound that is named as a salt.

Compound	Quantity Unit	LC retention time
Nc1ccccc1C(=O)CC(N)C(=O)O (configuration not stated) [KYNURENINE]	min	1.05
CCCCCCCCCCCC(=O)O [LAURATE]	min	12.5
CCCCCCCCCCCC=CCCCCC(=O)[O-] [PETROSELINATE]	min	16
CC(C)CC(=O)C(=O)O [KETOLEUCINE]	min	0.77
O=Cc1ccc(O)cc1 [4-HYDROXYBENZALDEHYDE]	min	3.59
O=C(O)CCc1ccccc1O [3-(2-HYDROXYPHENYL)PROPANOATE]	min	5.08
Cn1c(=O)[nH]c2ncn(C)c2c1=O [PARAXANTHINE]	min	2.15
CC(CC(=O)O)CC(=O)O [METHYGLUTARATE]	min	1.91
O=C(O)CNC(=O)c1ccccc1 [HIPPURATE]	min	3.42
CC(CCC(=O)O)C1CCC2C3C(O)CC4CC(O)CCC4(C)C3CC(O)C12C (configuration not stated) [CHOLATE]	min	8.9
CCCCCCCCCCCCCCCCCCCC(=O)O [ARACHIDATE]	min	17.9
O=C(O)C(=O)Cc1c[nH]c2ccccc12 [INDOLE-3-PYRUVATE]	min	5.58
O=C(O)c1ccc2ccccc2c1O [1-HYDROXY-2-NAPHTHOATE]	min	8.56
C[Se]CCC(N)C(=O)O (configuration not stated) [SELENOMETHIONINE]	min	0.683
CC(=O)NC(CS)C(=O)O (configuration not stated) [N-ACETYLCYSTEINE]	min	0.937
O=C(O)c1cc(=O)c2ccccc2[nH]1 [KYNURENATE]	min	2.93
CC(CCC(=O)NCCS(=O)(=O)O)C1CCC2C3CCC4CC(O)CCC4(C)C3CCC12C (configuration not stated) [LITHOCHOLYLTAURINE]	min	9.62
CC(=O)NCCCC(=O)O [4-ACETAMIDOBUTANOATE]	min	0.783
NC(=O)Cc1c[nH]c2ccccc12 [INDOLE-3-ACETAMIDE]	min	4.23
O=c1[nH]cnc2c1ncn2C1OC(CO)C(O)C1O (configuration not stated) [INOSINE]	min	0.663
O=S(=O)(O)Oc1c[nH]c2ccccc12 [INDOXYL SULFATE]	min	3.2
Nc1ccc(C(=O)O)cc1 [4-AMINOBENZOATE]	min	3.93
CC(=O)C1CCC2C3CC=C4CC(OS(=O)(=O)O)CCC4(C)C3CCC12C (configuration not stated) [PREGNENOLONE SULFATE]	min	8.55
Cc1cn(C2CC(O)C(CO)O2)c(=O)[nH]c1=O (configuration not stated) [THYMIDINE]	min	1.04
O=CCc1c[nH]c2ccccc12 [INDOLEACETALDEHYDE]	min	2.17
COc1cc(CC(=O)O)ccc1O [HOMOVANILLATE]	min	3.93
CCCCCCCCCCCC(=O)OC(CC(=O)[O-])C[N+](C)(C)C (configuration not stated) [LAUROYLCARNITINE]	min	9.25
O=C(O)c1cc(O)ccc1O [2,5-DIHYDROXYBENZOATE]	min	2.63
Cc1cc2nc3[nH]c(=O)[nH]c(=O)c3nc2cc1C [LUMICHROME]	min	5.5
COc1cc(C(O)C(=O)O)ccc1O (configuration not stated) [3-METHOXY-4-HYDROXYMANDELATE]	min	1.04
CCCCC(N)C(=O)O (configuration not stated) [NORLEUCINE]	min	0.79
O=C(O)Cc1c[nH]c2ccccc12 [INDOLE-3-ACETATE]	min	5.56
CCCCCCSCC(NC(=O)CCC(N)C(=O)O)C(=O)NCC(=O)O (configuration not stated) [S-HEXYL-GLUTATHIONE]	min	5.85
CC(C)=CCNc1ncnc2nc[nH]c12 [N6-(DELTA2-ISOPENTENYL)-ADENINE]	min	4.21
CCCCCC=CCC=CCC=CCCCCC(=O)O [GAMMA-LINOLENATE]	min	14.1
N[C@@H](Cc1ccc(O)c([N+](=O)[O-])c1)C(=O)O [3-NITRO-L-TYROSINE]	min	1.35
O=C(O)c1cc(=O)c2cccc(O)c2[nH]1 [XANTHURENATE]	min	2.29
CCCCCCCCCCCCCCCCCC(=O)[O-] [STEARATE]	min	16.9
OCc1cccc(O)c1 [3-HYDROXYBENZYL ALCOHOL]	min	2.02
O=C(O)C=Cc1ccc(O)cc1 [4-COUMARATE]	min	4.64
CC(CCC(=O)O)C1CCC2C3CCC4CC(O)CCC4(C)C3CCC12C (configuration not stated) [LITHOCHOLATE]	min	12.4
COc1cc(C(O)CO)ccc1O (configuration not stated) [4-HYDROXY-3-METHOXYPHENYLGLYCOL]	min	1.07
